Values from patent US8633196B2

molecular target: TACE enzyme (Homo sapiens (Human), UniProt P78536); experiment: Enzymatic assay for TACE inhibition (fluorescent substrate); type: biochemical; settings: read-out: IC50 (nM) TACE; TACE column of selectivity table
Sequence (P78536 215-824 limits assumed): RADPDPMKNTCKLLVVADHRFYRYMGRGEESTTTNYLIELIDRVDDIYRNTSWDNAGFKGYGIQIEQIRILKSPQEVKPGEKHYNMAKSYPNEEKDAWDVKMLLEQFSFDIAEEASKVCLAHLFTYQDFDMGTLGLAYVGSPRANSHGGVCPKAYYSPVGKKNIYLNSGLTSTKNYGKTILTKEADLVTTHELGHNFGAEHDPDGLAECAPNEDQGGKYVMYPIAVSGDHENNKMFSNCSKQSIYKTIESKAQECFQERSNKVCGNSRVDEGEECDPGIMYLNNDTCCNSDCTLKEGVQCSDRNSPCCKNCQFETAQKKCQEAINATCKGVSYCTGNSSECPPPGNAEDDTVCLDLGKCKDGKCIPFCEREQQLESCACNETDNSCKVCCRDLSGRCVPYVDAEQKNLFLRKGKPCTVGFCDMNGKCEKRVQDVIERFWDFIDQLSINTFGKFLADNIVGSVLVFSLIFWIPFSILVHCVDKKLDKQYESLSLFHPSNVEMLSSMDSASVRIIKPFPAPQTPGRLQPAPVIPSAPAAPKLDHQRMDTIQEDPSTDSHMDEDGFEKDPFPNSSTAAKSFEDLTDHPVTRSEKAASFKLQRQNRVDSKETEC
quantity.name: IC50 (nM)
Numeric answer only, unit nM assumed.

Prompt: Would you kindly share the measured IC50 for CC1(C)SCCN(S(=O)(=O)c2ccc(OCC#CCO)cc2)[C@H]1C(=O)NO [Apratastat, reference compound] ?
Completion: 5

----------
target: TACE enzyme (Homo sapiens (Human)); test: Enzymatic assay for TACE inhibition (fluorescent substrate); assay type: biochemical; details: enzymatic assay, substrate 40 μM; read-out: IC50-TACE
IC50 values for the molecules below.
Numeric answer only, unit nM assumed.

// known answers, use as guide
>>> measured("Cc1cc(COc2ccc(S(=O)(=O)NC[C@@H](C(=O)NO)N3CCN(Cc4ccc(F)cc4)CC3)cc2)c2ccccc2n1 [Example 18]")
67
>>> measured("Cc1cc(COc2ccc(S(=O)(=O)NC[C@@H](C(=O)NO)N3CCNCC3)cc2)c2ccccc2n1 [Example 13]")
108
>>> measured("CS(=O)(=O)N1CCN([C@@H](CNS(=O)(=O)c2ccc(OCc3cccc(C#N)c3)cc2)C(=O)NO)CC1 [Example 8]")
127
>>> measured("CCN1CCN([C@@H](CNS(=O)(=O)c2ccc(OCc3cc(C)nc4ccccc34)cc2)C(=O)NO)CC1 [Example 19]")
41

Prompt: Would you kindly share the measured IC50 for CS(=O)(=O)N1CCN([C@@H](CNS(=O)(=O)c2ccc(OCc3ccnc(-c4ccccc4)c3)cc2)C(=O)NO)CC1 [Example 11] ?
Completion: 24

Prompt: One more molecule: Cc1cc(COc2ccc(S(=O)(=O)NC[C@@H](C(=O)NO)N3CCN(S(=O)(=O)C(C)C)CC3)cc2)c2ccccc2n1 [Example 26]
Completion: 33

Prompt: One more molecule: Cc1cc(COc2ccc(S(=O)(=O)NC[C@@H](C(=O)NO)N3CCN(Cc4ccccc4)CC3)cc2)c2ccccc2n1 [Example 17]
Completion: 62

----------
target: ADAM9 (Homo sapiens (Human)); experiment: Selectivity assay, ADAM9; assay type: biochemical
Sequence (Q13443 29-819, species assumed): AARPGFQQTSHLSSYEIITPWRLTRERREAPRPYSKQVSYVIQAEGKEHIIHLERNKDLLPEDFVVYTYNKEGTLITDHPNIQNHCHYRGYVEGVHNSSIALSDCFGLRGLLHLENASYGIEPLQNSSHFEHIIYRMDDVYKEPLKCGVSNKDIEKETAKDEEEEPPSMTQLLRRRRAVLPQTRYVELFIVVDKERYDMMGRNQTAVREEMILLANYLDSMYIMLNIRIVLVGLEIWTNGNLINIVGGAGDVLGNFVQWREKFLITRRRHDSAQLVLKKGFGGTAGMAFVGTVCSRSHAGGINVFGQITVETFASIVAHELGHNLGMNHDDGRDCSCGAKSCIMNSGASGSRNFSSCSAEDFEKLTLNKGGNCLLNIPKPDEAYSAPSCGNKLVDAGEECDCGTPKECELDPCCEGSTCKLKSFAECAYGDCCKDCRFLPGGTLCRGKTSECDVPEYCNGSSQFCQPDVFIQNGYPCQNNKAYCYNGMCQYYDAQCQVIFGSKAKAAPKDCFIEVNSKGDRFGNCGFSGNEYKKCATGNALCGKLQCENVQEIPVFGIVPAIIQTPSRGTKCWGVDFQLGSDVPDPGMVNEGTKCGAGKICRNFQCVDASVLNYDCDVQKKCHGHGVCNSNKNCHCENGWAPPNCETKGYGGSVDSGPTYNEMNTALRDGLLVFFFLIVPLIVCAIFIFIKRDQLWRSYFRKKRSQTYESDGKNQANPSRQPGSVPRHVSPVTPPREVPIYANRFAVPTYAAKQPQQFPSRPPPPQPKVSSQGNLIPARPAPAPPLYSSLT
IC50 values for the compounds below.
Numeric answer only, unit nM assumed.

// known answers, use as guide
>>> measured("CC1(C)SCCN(S(=O)(=O)c2ccc(OCC#CCO)cc2)[C@H]1C(=O)NO [Apratastat, reference compound]")
85
>>> measured("CCN1CCN([C@@H](CNS(=O)(=O)c2ccc(OCc3cc(C)nc4ccccc34)cc2)C(=O)NO)CC1 [Example 19]")
3050

Prompt: Would you kindly share the measured IC50 for Cc1cc(COc2ccc(S(=O)(=O)NC[C@@H](C(=O)NO)N3CCN(Cc4ccc(F)cc4)CC3)cc2)c2ccccc2n1 [Example 18] ?
Completion: 9250

----------
biological target: UniProtKB P08254; assay: Selectivity assay, MMP3; assay type: biochemical
Sequence (P08254 100-477, species assumed): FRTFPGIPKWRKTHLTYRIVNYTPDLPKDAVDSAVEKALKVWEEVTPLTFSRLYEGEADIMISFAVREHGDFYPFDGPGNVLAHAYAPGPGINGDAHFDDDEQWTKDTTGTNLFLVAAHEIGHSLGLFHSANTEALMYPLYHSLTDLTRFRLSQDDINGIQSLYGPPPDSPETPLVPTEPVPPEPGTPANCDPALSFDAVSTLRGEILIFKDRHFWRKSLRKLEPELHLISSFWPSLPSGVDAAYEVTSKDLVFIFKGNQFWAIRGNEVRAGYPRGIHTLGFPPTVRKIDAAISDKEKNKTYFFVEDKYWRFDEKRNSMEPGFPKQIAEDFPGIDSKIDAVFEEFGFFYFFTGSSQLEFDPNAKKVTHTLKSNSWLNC
quantity.name: IC50 (nM)
Numeric answer only, unit nM assumed.

// known answers, use as guide
>>> measured("Cc1cc(COc2ccc(S(=O)(=O)NC[C@@H](C(=O)NO)N3CCN(C(=O)C(C)C)CC3)cc2)c2ccccc2n1")
1060
>>> measured("Cc1cc(COc2ccc(S(=O)(=O)NC[C@@H](C(=O)NO)N3CCN(Cc4ccc(F)cc4)CC3)cc2)c2ccccc2n1")
849

Prompt: Would you kindly share the measured IC50 for CCN1CCN([C@@H](CNS(=O)(=O)c2ccc(OCc3cc(C)nc4ccccc34)cc2)C(=O)NO)CC1 ?
Completion: 1770

Prompt: One more compound: Cc1cc(COc2ccc(S(=O)(=O)NC[C@@H](C(=O)NO)N3CCN(S(C)(=O)=O)CC3)cc2)c2ccccc2n1
Completion: 3200

----------
target: TACE enzyme (Homo sapiens (Human), UniProt P78536); assay: Enzymatic assay for TACE inhibition (fluorescent substrate); format: biochemical; conditions: TACE column of selectivity table; read-out: IC50 (nM) TACE
Threshold-based label: IC50 under 50 nM gives satisfied, IC50 not under 50 nM gives not satisfied.

A selection of reference data follows.
>>> assigned_label("Cc1cc(COc2ccc(S(=O)(=O)NC[C@@H](C(=O)NO)N3CCN(S(C)(=O)=O)CC3)cc2)c2ccccc2n1")
"satisfied"
>>> assigned_label("Cc1cc(COc2ccc(S(=O)(=O)NC[C@@H](C(=O)NO)N3CCN(S(=O)(=O)C(C)C)CC3)cc2)c2ccccc2n1")
"satisfied"

Prompt: State whether 50 nM exceeds IC50 recorded for CCN1CCN([C@@H](CNS(=O)(=O)c2ccc(OCc3cc(C)nc4ccccc34)cc2)C(=O)NO)CC1 .
Completion: satisfied

Prompt: One more compound: Cc1ccc(CN2CCN([C@@H](CNS(=O)(=O)c3ccc(OCc4cc(C)nc5ccccc45)cc3)C(=O)NO)CC2)cc1
Completion: not satisfied

Prompt: One more compound: Cc1cc(COc2ccc(S(=O)(=O)NC[C@@H](C(=O)NO)N3CCN(Cc4ccc(F)cc4)CC3)cc2)c2ccccc2n1
Completion: not satisfied

Prompt: One more compound: Cc1cc(COc2ccc(S(=O)(=O)NC[C@@H](C(=O)NO)N3CCN(C(=O)C(C)C)CC3)cc2)c2ccccc2n1
Completion: not satisfied

----------
target: UniProt P14780; assay: Selectivity assay, MMP9; assay type: biochemical
Sequence (P14780 94-707, species assumed): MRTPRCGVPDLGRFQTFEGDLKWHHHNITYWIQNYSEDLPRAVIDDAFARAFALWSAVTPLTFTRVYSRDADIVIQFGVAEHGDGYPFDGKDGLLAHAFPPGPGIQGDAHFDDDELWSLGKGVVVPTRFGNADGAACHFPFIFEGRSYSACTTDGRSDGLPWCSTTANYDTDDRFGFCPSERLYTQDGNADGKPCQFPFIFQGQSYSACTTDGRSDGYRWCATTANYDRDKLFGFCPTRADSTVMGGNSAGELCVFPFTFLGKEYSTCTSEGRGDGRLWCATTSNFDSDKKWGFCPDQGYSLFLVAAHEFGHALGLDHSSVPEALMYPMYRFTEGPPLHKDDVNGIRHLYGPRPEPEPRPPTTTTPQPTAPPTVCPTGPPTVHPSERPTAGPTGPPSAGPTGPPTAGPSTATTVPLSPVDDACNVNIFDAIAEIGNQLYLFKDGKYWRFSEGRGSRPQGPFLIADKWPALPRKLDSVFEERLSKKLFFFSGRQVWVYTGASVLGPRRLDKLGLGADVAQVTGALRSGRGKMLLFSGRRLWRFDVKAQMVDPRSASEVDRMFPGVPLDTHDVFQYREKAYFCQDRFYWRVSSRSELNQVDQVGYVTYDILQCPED
IC50 values for the compounds below.

>>> measured("CC1(C)SCCN(S(=O)(=O)c2ccc(OCC#CCO)cc2)[C@H]1C(=O)NO [Apratastat, reference compound]")
"82 nM"
>>> measured("Cc1cc(COc2ccc(S(=O)(=O)NC[C@@H](C(=O)NO)N3CCN(Cc4ccc(C(F)(F)F)cc4)CC3)cc2)c2ccccc2n1")
"> 10000 nM"
>>> measured("Cc1cc(COc2ccc(S(=O)(=O)NC[C@@H](C(=O)NO)N3CCN(Cc4ccc(F)cc4)CC3)cc2)c2ccccc2n1")
"> 10000 nM"

Prompt: Would you kindly share the measured IC50 for CCN1CCN([C@@H](CNS(=O)(=O)c2ccc(OCc3cc(C)nc4ccccc34)cc2)C(=O)NO)CC1 ?
Completion: > 10000 nM

----------
target: TACE enzyme (Homo sapiens (Human), UniProt P78536); experiment: Enzymatic assay for TACE inhibition (fluorescent substrate); type: biochemical; conditions: at 10 μM
% TACE inhibition at 10 μM values for the compounds below.
Numeric answer only, unit % assumed.

Prompt: Would you kindly share the measured % TACE inhibition at 10 μM for CS(=O)(=O)N1CCN([C@@H](CNS(=O)(=O)c2ccc(OCc3ccnc(-c4ccccc4)c3)cc2)C(=O)NO)CC1 ?
Completion: 93

Prompt: One more compound: Cc1cc(COc2ccc(S(=O)(=O)NC[C@@H](C(=O)NO)N3CCN(C(=O)C(C)C)CC3)cc2)c2ccccc2n1
Completion: 97

Prompt: One more compound: CCN1CCN([C@@H](CNS(=O)(=O)c2ccc(OCc3cc(C)nc4ccccc34)cc2)C(=O)NO)CC1
Completion: 92

Prompt: One more compound: Cc1cc(COc2ccc(S(=O)(=O)NC[C@@H](C(=O)NO)N3CCN(Cc4ccccc4)CC3)cc2)c2ccccc2n1
Completion: 91

Prompt: One more compound: Cc1cc(COc2ccc(S(=O)(=O)NC[C@@H](C(=O)NO)N3CCN(S(C)(=O)=O)CC3)cc2)c2ccccc2n1.Cl
Completion: 98

Prompt: One more compound: CS(=O)(=O)N1CCN([C@@H](CNS(=O)(=O)c2ccc(OCc3ccnc4ccccc34)cc2)C(=O)NO)CC1
Completion: 96

Prompt: One more compound: Cc1cc(COc2ccc(S(=O)(=O)NC[C@@H](C(=O)NO)N3CCN(Cc4ccc(F)cc4)CC3)cc2)c2ccccc2n1
Completion: 90

Prompt: One more compound: Cc1cc(COc2ccc(S(=O)(=O)NC[C@@H](C(=O)NO)N3CCNCC3)cc2)c2ccccc2n1
Completion: 96

Prompt: One more compound: Cc1cc(COc2ccc(S(=O)(=O)NC[C@@H](C(=O)NO)N3CCN(S(C)(=O)=O)CC3)cc2)c2ccccc2n1
Completion: 99

Prompt: One more compound: Cc1cc(COc2ccc(S(=O)(=O)NC[C@@H](C(=O)NO)N3CCN(S(=O)(=O)C(C)C)CC3)cc2)c2ccccc2n1
Completion: 98
